Each recorded value in this set is attributed to patent US20230357242A1.

- experimentNotes: Pharmacokinetic evaluation in mice
- Type: in vivo
- assayConditions: mouse, plasma; ICR mice, IV 1 mg/kg

molecularString	Vd, L/kg
CN1CC2(CCN(c3cccc(-c4ccc5nc(-c6cccnc6N)n(-c6ccc(C7(N)CCC7)cc6)c5n4)c3F)CC2)CC1=O	5.42
CC(=O)N1CC2(CCN(c3cccc(-c4ccc5nc(-c6cccnc6N)n(-c6ccc(C7(N)CCC7)cc6)c5n4)c3F)CC2)C1	0.398
CC(=O)N1CC2(C1)CN(c1cccc(-c3ccc4nc(-c5cccnc5N)n(-c5ccc(C6(N)CCC6)cc5)c4n3)c1F)C2	9.92
Nc1ncccc1-c1nc2ccc(-c3cccc(N4CCC(N5CCCC5=O)CC4)c3F)nc2n1-c1ccc(C2(N)CCC2)cc1	4.43

----------
- Tested on: LNcap cells
- experimentNotes: Inhibitory effect on proliferation of LNcap cells (CCK-8, 72 h)
- Format: cell-based
- assayConditions: Homo sapiens, LNcap cells, CCK-8, read-out: LNcap cells IC50
Binning scheme for IC50: band 1 (below 5 nM), band 2 (5 nM to below 10 nM), band 3 (10 nM or more)

compound	label
Nc1ncccc1-c1nc2ccc(-c3cccc(N4CCC(N5CCCS5(=O)=O)CC4)c3F)nc2n1-c1ccc(C2(N)CCC2)cc1	band 3
CC(=O)N1CCC2(C1)CN(c1cccc(-c3ccc4nc(-c5cccnc5N)n(-c5ccc(C6(N)CCC6)cc5)c4n3)c1F)C2	band 2
CC(=O)N1CC2(C1)CN(c1cccc(-c3ccc4nc(-c5cccnc5N)n(-c5ccc(C6(N)CCC6)cc5)c4n3)c1)C2	band 2
CC1CC(N2CCCC2=O)CCN1c1cccc(-c2ccc3nc(-c4cccnc4N)n(-c4ccc(C5(N)CCC5)cc4)c3n2)c1 (stereo not shown)	band 2
Nc1ncccc1-c1nc2ccc(-c3cccc(N4CCN5C(=O)CCC5C4)c3)nc2n1-c1ccc(C2(N)CCC2)cc1 (stereo not shown)	band 3
Nc1ncccc1-c1nc2ccc(-c3cccc(N4CCC(N5CCC(F)(F)C5=O)CC4)c3)nc2n1-c1ccc(C2(N)CCC2)cc1	band 1
CS(=O)(=O)N1CC2(CN(c3cccc(-c4ccc5nc(-c6cccnc6N)n(-c6ccc(C7(N)CCC7)cc6)c5n4)c3)C2)C1	band 3
CC(=O)N1CC2(C1)CN(c1cccc(-c3ccc4nc(-c5cccnc5N)n(-c5ccc(C6(N)CCC6)cc5)c4n3)c1F)C2	band 1
CN(C1CCN(c2cccc(-c3ccc4nc(-c5cccnc5N)n(-c5ccc(C6(N)CCC6)cc5)c4n3)c2F)CC1)S(C)(=O)=O	band 1
CC(=O)N(C)CCN(C)c1cccc(-c2ccc3nc(-c4cccnc4N)n(-c4ccc(C5(N)CCC5)cc4)c3n2)c1	band 3
CC(=O)N1CC2(CCN(c3cccc(-c4ccc5nc(-c6cccnc6N)n(-c6ccc(C7(N)CCC7)cc6)c5n4)c3F)CC2)C1	band 1
CC(=O)N1CC2CC(C1)N2c1cccc(-c2ccc3nc(-c4cccnc4N)n(-c4ccc(C5(N)CCC5)cc4)c3n2)c1F	band 3

----------
- experimentNotes: Pharmacokinetic evaluation in rats
- Format: in vivo
- assayConditions: rat, plasma, oral; SD rats, IG 10 mg/kg vs IV 1 mg/kg; read-out: Absolute bioavailability F %

compound	measurementUnit	bioavailability
CC(=O)N1CC2(C1)CN(c1cccc(-c3ccc4nc(-c5cccnc5N)n(-c5ccc(C6(N)CCC6)cc5)c4n3)c1F)C2 [Compound 28]	%	25
Nc1ncccc1-c1nc2ccc(-c3cccc(N4CCC(N5CCCC5=O)CC4)c3F)nc2n1-c1ccc(C2(N)CCC2)cc1 [Compound 30]	%	35.5
